Target: T1, cyno TF ECD-His (cTF-his) (monkey (cyno))
T1 construct: also called bio-cTF-his; monkey TF-His protein
T1 chain: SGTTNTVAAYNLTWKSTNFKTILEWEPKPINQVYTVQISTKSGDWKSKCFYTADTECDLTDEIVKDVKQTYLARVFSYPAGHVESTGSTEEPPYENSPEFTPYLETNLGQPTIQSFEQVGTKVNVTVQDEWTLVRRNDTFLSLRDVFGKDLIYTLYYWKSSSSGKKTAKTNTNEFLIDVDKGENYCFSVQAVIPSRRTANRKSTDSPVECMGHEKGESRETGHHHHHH
Assay: SPR Biacore T200, antibody on Protein A chip, TF-His as analyte, 1:1 model
Flag rule - Kd less than 0.01 µM flags yes; the remaining entries get no.

Threshold test, Kd < 0.01 µM: hu67-9 (antibody, human IgG1, kappa, V domains shown) VH: EVTLKQSGPVLVKPTQTLTLTCTVSGFSLTNYGVNWIRQPPRKALEWLAVIWSRGNTDYNAAFISRLTISKDTSKSQVVLKMTNMDPVDTATYYCARKDAVVATDALDYWGQGTTVTVSS VL: DIQMTQSPSSLSASVGDRVTITCKASQDVSTAVAWYQQKPGKAPKLLIYSTSYRYTGVPSRFSGSGSGTDFTFTISSLQPEDIATYYCQQHYSTPYTFGGGTKVEIKR
no

Threshold test, Kd < 0.01 µM: hu67-12 (antibody, human IgG1, kappa, V domains shown) VH: EVQLQESGPGLVKPSQTLSLTCTVSGFSLTNYGVNWIRQPPRKGLEWIGVIWSRGNTDYNAAFISRVTISKDNSKSQVSLKLSSVTAADTAVYYCARKDAVVATDALDYWGQGTTVTVSS VL: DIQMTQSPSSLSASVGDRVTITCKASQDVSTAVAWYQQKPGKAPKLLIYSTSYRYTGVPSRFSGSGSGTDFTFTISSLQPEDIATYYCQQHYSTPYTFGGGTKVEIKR
no

Threshold test, Kd < 0.01 µM: hu67-10 (antibody, human IgG1, kappa, V domains shown) VH: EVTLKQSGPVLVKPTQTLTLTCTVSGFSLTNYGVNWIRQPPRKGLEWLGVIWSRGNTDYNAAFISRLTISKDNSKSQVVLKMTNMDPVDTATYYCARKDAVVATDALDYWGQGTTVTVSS VL: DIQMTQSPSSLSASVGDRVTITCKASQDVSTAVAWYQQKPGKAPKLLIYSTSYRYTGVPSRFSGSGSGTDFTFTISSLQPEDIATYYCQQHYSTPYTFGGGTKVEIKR
yes

Threshold test, Kd < 0.01 µM: chimeric antibody CH67 (antibody, human IgG1, kappa, V domains shown, Murine 67# variable regions + human constant regions) VH: QVQLKQSGPGLVQPSQSLSITCIVSGFSLTNYGVNWVRQSPRKGLEWLGVIWSRGNTDYNAAFISRLIISKDNSKSQVFLKMNRLQADDTAIYYCARKDAVVATDALDYWGQGTSVTVSS VL: DIVMTQSHKFMSTSLGDRVSITCKASQDVSTAVAWYQQKPGQSPKLLIYSTSYRYTGVPDRFTGSGSGTDFTFTISSVQAEDLAVYYCQQHYSTPYTFGGGTKLEIKR
no

Threshold test, Kd < 0.01 µM: hu67-6 (antibody, human IgG1, kappa, V domains shown) VH: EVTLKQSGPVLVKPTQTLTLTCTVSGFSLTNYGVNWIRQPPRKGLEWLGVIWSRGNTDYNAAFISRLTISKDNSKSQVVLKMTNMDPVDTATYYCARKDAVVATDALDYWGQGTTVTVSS VL: DIVMTQSPKSLAVSLGERATINCKASQDVSTAVAWYQQKPGQSPKLLIYSTSYRYTGVPDRFSGSGSGTDFTFTISSLQAEDVAVYYCQQHYSTPYTFGGGTKVEIKR
no

Cited source for all entries: patent EP4703388A1
